Source: ChEMBL document CHEMBL1155028

Please provide measured Activity for the entries that follow.
Measurement target: 5-hydroxytryptamine receptor 1A (Rattus norvegicus)
Experimental details: Displacement of [3H]8-OH-DPAT from rat 5HT1A receptor expressed in CHO cells at 10 uM
Assay type: cell-based

COc1cc2c3c(c1)-c1c(N)cccc1C[C@H]3N(C)CC2 | 94%

Record Activity per entry; entries follow.
1. NCCc1c[nH]c2ccc(O)cc12
2. CCCCC(=O)Oc1cccc2c1-c1cc(OC)cc3c1[C@@H](C2)N(C)CC3
3. CN1CCc2cc(N)cc3c2[C@H]1Cc1cccc(N)c1-3

Output line:
1: 100%; 2: 100%; 3: 48.1%

Lab note: COc1cc2c3c(c1)-c1c(ccc4sc(N)nc14)C[C@H]3N(C)CC2 gave Activity of 48.1%
